Source: PubChem BioAssay (NCI)

- test-protocol: NCI Yeast Anticancer Drug Screen. Data for the sgs1 mgt1 strain (AID 161)
- condition-info: S. cerevisiae sgs1 mgt1 strain, at 50.0 µM
This is part of a sample that, as a whole, favours compounds with a hit. Of some 79,000 tested, about 15% had one in any assay. Activity calls are given as the source filed them. No stated cut-off is given here; in the data, active means growth inhibition above about 70%; inactive means the rest.
Classes used: Y (active), N (inactive)

compound | assigned-label
CCOC(=O)/C(C)=N/Nc1cc(Cl)ccc1O | N
CCN(CC)CCCCCCNc1cc(C)cc2cccnc12 | Y
COc1ccc(N2C(=O)C(=O)C(C(C)=O)C2=O)cc1 (configuration not stated) | Y
NC(=S)N/N=C1\CCCCc2ccccc21 | Y
NC(=S)C(=S)N=Cc1c(N)[nH]n(-c2ccccc2)c1=O | N
CC(C)(C)N1C(=O)C(Cl)(C#N)C1c1ccccc1 (configuration not stated) | Y
Cc1cc(Cl)ccc1N1C(=O)C(=O)C(c2nc3ccccc3o2)C(=O)C1=O | Y
CCCCCCc1c(Cl)nc(Cl)nc1Cl | N
C/C(=C\c1ccccc1Cl)c1ccccn1 | Y
CCCCCCCCC(=O)NCCCNCCCNC(=O)CCCCCCCC | N
CCCCn1cnc2c(SCc3ccccc3[N+](=O)[O-])nc(N)nc21 | Y
c1ccc(C(CNCCN2CCCCCC2)C2CCCCC2)cc1 (configuration not stated) | Y
